- target_or_system: PIP4K2A (Homo sapiens, UniProt P48426)
- Sequence (P48426 whole entry, species assumed): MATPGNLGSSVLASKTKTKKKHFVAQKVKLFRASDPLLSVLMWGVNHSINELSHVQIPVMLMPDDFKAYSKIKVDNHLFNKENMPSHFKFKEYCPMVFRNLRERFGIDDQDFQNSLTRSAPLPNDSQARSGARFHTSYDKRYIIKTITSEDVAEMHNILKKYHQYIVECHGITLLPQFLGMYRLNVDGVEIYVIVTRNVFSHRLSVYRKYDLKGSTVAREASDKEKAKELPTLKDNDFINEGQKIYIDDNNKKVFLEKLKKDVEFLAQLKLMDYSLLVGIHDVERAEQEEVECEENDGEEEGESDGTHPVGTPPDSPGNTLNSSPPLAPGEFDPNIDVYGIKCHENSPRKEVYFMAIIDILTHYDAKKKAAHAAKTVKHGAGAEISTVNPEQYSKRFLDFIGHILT
- run_description: ADP-glo kinase assay PIP4K 2A (Table 3)
- Format: biochemical
- Design: made in house; host or cells: E. coli
- condition: compounds listed under IC50 bins
quantity_measured: IC50

COc1ncc(Nc2ccc(-c3ccc(N4CCCC4=O)cc3)cn2)cc1N(C)S(C)(=O)=O: 0.1 to 1 µM
CC(C)(N)c1cc(Nc2cnc3c(c2)N2C(=O)CC[C@H]2CO3)ncc1-c1ccc(N2CCCC2=O)cc1F: 0.001 to 0.01 µM
O=C1CCCN1c1ccc(-c2cnc(Nc3cnc4c(c3)N3C(=O)C5(CC5)C[C@H]3CO4)cc2C2CC2)cc1: ≤ 0.001 µM
COc1ncc(Nc2ccc(-c3ccc(N4CCCC4=O)cc3)cn2)cc1N(C)C(C)=O: > 1 µM
O=C(c1cccc2ncc(Nc3ccc(-c4ccc(N5CCCC5=O)cc4)cn3)cc12)N1CCC(O)C1 (stereo not drawn): > 1 µM

Query: Reported IC50 for PIP4K2A (Homo sapiens, UniProt P48426), given CN(C)C(=O)c1ccc(-c2ccc(Nc3cncc(OC(F)F)c3)nc2)cc1 ?
Result: 0.1 to 1 µM

Query: Reported IC50 for PIP4K2A (Homo sapiens, UniProt P48426), given CN(C)C/C=C/C(=O)NCC(=O)Nc1cccc(CN2CCN(c3cncc(Nc4ccc(-c5ccc(C(=O)N(C)C)cc5)cn4)c3)C2=O)c1 ?
Result: 0.001 to 0.01 µM

Query: Reported IC50 for PIP4K2A (Homo sapiens, UniProt P48426), given O=C1C[C@H](O)CN1c1ccc(-c2ccc(Nc3cnc4c(c3)N3C(=O)CC[C@H]3CO4)nc2)cc1 ?
Result: 0.1 to 1 µM

Query: Reported IC50 for PIP4K2A (Homo sapiens, UniProt P48426), given CN(C)C(=O)c1ccc(-c2ccc(Nc3cncc(NC(=O)c4cccc(F)c4)c3)nc2)cc1 ?
Result: 0.01 to 0.1 µM

Query: Reported IC50 for PIP4K2A (Homo sapiens, UniProt P48426), given CC(=O)N1CCN(C)c2ncc(Nc3ccc(-c4ccc(C(=O)N(C)C)cc4)cn3)cc21 ?
Result: 0.1 to 1 µM
